- System: A673/TR/shEF
- Protocol summary: cell viability (LOESS-normalised, relative to median of negative controls) (log2 ratio); higher = more viable cells (less compound effect), active = hit call of the paper (over 3 MAD below the median)
- Experimental context: 2.5 µM; library screen: screen1; EWS-FLI1 expression: high (no doxycycline); treatment time: 72 h
The whole screen tested about 3,200 compounds, of which about 300 (9.4%) showed activity. The list comes from a sample in which actives are over-represented; it also holds close analogues and randomly drawn compounds.
Each item that follows carries a reported cell viability (log2).
Quantity kind: cell viability (log2)

C=CC(C)(C)c1c2c(c(O)c3c(=O)c4ccc(O)c(O)c4oc13)C=CC(C)(C)O2 : -0.0746
COc1ccc(OC)c(CN2CCN(Cc3ccccc3F)CC2)c1 : 0.123
COc1cccc(-c2cc(=O)c3ccccc3o2)c1N : -0.37
C=C1C[C@]23C[C@@]1(O)CC[C@H]2[C@@]12C=C[C@H](O)C(C)(C(=O)O1)[C@H]2[C@@H]3C(=O)O : 0.109
CC(=O)OC1CCC2(C)C3=C(CC[C@H]2C1(C)C)[C@@]1(C)CC[C@@H]([C@@H](C)CCC=C(C)C)[C@]1(C)CC3 (some centres not stated) : 0.0338
COc1ccc2c(c1)O[C@@H]1COc3cc(OC)c(OC)cc3[C@@H]1C2=O : -0.0122
COc1ccc(-c2c(OC)c3c(OC)c4c(cc3oc2=O)OC(C)(C)C=C4)cc1 : 0.211
CC1=C2C(O)C(=O)OC3CC4C(C)(C)C(=O)CCC4(C)C(CC1)C23C (configuration not stated) : 0.0817
COc1c2c(cc3ccoc13)C(=O)[C@H]1c3cc4c(cc3OC[C@H]1O2)OCO4 : 0.0793
Cc1cc(N2CCN(c3ncccn3)CC2)n2c(nc3ccccc32)c1C#N : 0.108
OCCN(C(=S)Nc1ccc2nccnc2c1)c1ccccc1 : 0.0818
COc1cc(O)c2c(=O)cc(-c3ccc(OC)c(-c4c(O)cc(O)c5c(=O)cc(-c6ccc(O)cc6)oc45)c3)oc2c1 : 0.144
CC[C@H]1OC(=O)[C@H](C)[C@@H](O[C@H]2C[C@@](C)(OC)[C@@H](O)[C@H](C)O2)[C@H](C)[C@@H](O[C@@H]2O[C@H](C)C[C@H](N(C)C)[C@H]2O)[C@](C)(O)C[C@@H](C)[C@@H]2N[C@@H](COCCOC)OC([C@H]2C)[C@]1(C)O : 0.143
CSCCC(NC=O)C(=O)NC(CC(C)C)C(=O)NC(Cc1ccccc1)C(=O)O (configuration not stated) : 0.0974
COc1ccccc1-c1cc(=O)c2c(OC)cccc2o1 : 0.129
CCC(=O)O[C@H]1CC[C@H]2[C@@H]3CCc4cc(O)ccc4[C@H]3CC[C@]12C : 0.162
COc1cc2c(cc1OC)[C@@H]1C(=O)c3c(O)cc4c(c3O[C@@H]1CO2)C=CC(C)(C)O4 : -0.213
C=C1c2cc(OC)ccc2NC(=O)N1c1ccccc1 : 0.104
CC(C)CCC[C@@H](C)C1CC[C@H]2[C@@H]3CCC4=CC(=O)C=C[C@]4(C)[C@H]3CC[C@]12C (some centres not stated) : 0.105
COC(=O)C1=C(C)N=c2sc(=Cc3cccnc3)c(=O)n2C1c1ccccc1 (configuration not stated) : 0.0796
COc1cccc(CN2CCN(Cc3c[nH]c4ccccc34)CC2)c1 : 0.138
NC(=O)c1cc[n+](CC2=C(C(=O)O)N3C(=O)[C@@H](NC(=O)C(c4ccccc4)S(=O)(=O)O)[C@H]3SC2)cc1 (some centres not stated) : -0.00797
